Overview of recorded GI50 for various molecules
Test system: SK-MEL-2
METHOD DESCRIPTION: NCI tumour cell line growth inhibition, 48 h
Activity calls are given as the source filed them. No stated cut-off is given here; in the data, active = GI50 up to about 1.1 µM and inactive = higher.

Consider the worked cases shown below.
>>> reported_measurement("COc1nc(-c2cn(S(=O)(=O)c3ccc(C)cc3)c3ccc(Br)cc23)cc(C(F)(F)F)c1C#N")
"65.6 µM (inactive)"
>>> reported_measurement("N/C(=N\\c1ccc(Cl)cc1)NS(=O)(=O)c1c(C(F)(F)F)cccc1C(F)(F)F")
"12.7 µM (inactive)"
>>> reported_measurement("COc1ccc(/C=C2\\CCC(C)c3c2nc(N)c(C#N)c3-c2ccc(OC)c(OC)c2)cc1OC (centres undefined)")
"2.42 µM (inactive)"
>>> reported_measurement("Cc1cc(NS(=O)(=O)c2ccc(NC(=O)c3ccc4nc5ccccc5c(Nc5ccc(S(=O)(=O)N=C(N)N)cc5)c4c3)cc2)no1")
"16.5 µM (inactive)"
>>> reported_measurement("O=S(=O)(O)c1cccc2c(/N=N/c3c(O)ccc4ccccc34)cccc12")
"> 100 µM (inactive)"

So what does the record say about GI50 for O=C(O)/C=C(/C(=O)O)C12CCN3CC4=CCOC5CC(=O)NC1C5C4CC32 (centres undefined) ? > 100 µM (inactive)

Return reported GI50; argument: `O=c1/c(=C/c2c(O)ccc3ccccc23)sc2nc3ccccc3n12` > 100 µM (inactive)

Form field: reported GI50 of `CN1C/C(=C\C=C\c2ccccc2)C(=O)/C(=C/C=C/c2ccccc2)C1` > 100 µM (inactive)

Returns the measured GI50 for the input molecule. Input: CC(=O)Nc1ccc(C(=O)NN2C(=O)C(Cl)C2/C=C/c2ccccc2)cc1 (centres undefined) > 100 µM (inactive)
